- TARGET UNDER TEST: human Orexin 1 receptor (Homo sapiens, UniProt O43613)
- Construct: stably expressing the full-length human Orexin 1 receptor; expressed in transfected cells; host or cells: CHO-K1 (CHO-K1/hOX1), co-expressing aequorin
- Sequence (O43613 whole entry): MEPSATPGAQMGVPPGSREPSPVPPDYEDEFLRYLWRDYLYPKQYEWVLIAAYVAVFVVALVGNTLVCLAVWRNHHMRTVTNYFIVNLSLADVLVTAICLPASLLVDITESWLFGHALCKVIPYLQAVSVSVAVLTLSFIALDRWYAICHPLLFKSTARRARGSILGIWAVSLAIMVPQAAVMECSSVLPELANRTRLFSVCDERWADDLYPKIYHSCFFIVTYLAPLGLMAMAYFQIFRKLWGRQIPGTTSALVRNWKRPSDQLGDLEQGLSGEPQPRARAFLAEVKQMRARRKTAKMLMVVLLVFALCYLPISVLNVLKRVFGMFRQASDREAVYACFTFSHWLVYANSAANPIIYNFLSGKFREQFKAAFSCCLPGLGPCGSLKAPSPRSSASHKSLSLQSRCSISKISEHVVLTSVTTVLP
- METHOD DESCRIPTION: Assay A: OX1R IP1 (in vitro OX1R potency)
- Type: cell-based
Here, each record is paired with measured OX2R Kb/OX1R Kb data.
QUANTITY: OX2R Kb/OX1R Kb

>>> recorded_result("CCN(C(=O)c1ncc(F)cc1-c1ccn(C)n1)[C@@H](C)COc1ccc(C(F)(F)F)cn1")
243
>>> recorded_result("CCN(C(=O)c1c(F)ccnc1-c1ccn(C)n1)[C@@H](C)COc1ccc(C(F)(F)F)cn1")
93
>>> recorded_result("CCN(C(=O)c1cnccc1-n1cccn1)[C@@H](C)COc1ccc(C(F)(F)F)cn1")
139
>>> recorded_result("CCN(C(=O)c1cc(F)cnc1-c1ncccn1)[C@@H](C)COc1ncc(C(F)(F)F)cc1F")
706
